test.description: Differential nuclear staining
Type: cell-based
experimental.parameters: human
readout: selectivity ratio
Answer field: number only, no words.

                                     smiles  observed_measurement
0  COc1ccc(Cc2nn3c(C=O)c(-c4ccc(Cl)cc4)nc3s2)cc1                  1.43

Q. // lookup selectivity ratio for "COc1ccc(Cc2nn3c(SC#N)c(-c4cc5ccccc5oc4=O)nc3s2)cc1"
A. 13.3
